- assayedSystem: T1, CSP Protein (Plasmodium falciparum, UniProt Q7K740 19-374)
- T1 construct: also called circumsporozoite protein; complete CSP protein
- T1 sequence (Q7K740 19-374 limits assumed): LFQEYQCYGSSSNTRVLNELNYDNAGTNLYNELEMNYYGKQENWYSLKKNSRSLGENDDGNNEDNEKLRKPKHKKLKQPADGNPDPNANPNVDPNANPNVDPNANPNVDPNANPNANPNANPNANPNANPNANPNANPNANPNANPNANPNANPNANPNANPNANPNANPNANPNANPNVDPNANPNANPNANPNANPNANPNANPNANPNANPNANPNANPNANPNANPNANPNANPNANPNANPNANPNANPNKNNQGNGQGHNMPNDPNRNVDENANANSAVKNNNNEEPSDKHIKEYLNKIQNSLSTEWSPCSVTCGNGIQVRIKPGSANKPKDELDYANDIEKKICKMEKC
- method: SPR, antibody on chip;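 further: antibodies immobilized on a Carterra chip, directly or via anti-human Fc capture, at two spots each, with CSP flowed over at 4-5 concentrations peaking at 0.5-8 µg/mL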
readout: Kd
Please answer using a numeric value trailed by its unit.

Let me know recorded Kd for AB-007044 (antibody, V domains shown) VH: QMQLVESGGGVVQPGRSLRLSCTASGFTFSTYAMHWVRQSPGQGLQWVAVISYHSTNKYYEESVRGRFTISRDNSKNTLYLQMNSLRAEDTAVYYCARDGYSSSFFDFWGQGTLVTVSS VL: DIQMTQSPSTLSASVGDRVAITCRASQSISRWLAWYQQQPGKAPKLLMSGASVLESGVPSRFSGSGSGTEFTLTISSLQPDDFATYYCQHYNSYFVTFGQGTKVEIK , thanks. 0.0319 nM

Quick one: give measured Kd for AB-007045 (antibody, V domains shown) VH: QMQLVESGGGVVQPGRSLRLSCTASGFTFSTYAMHWVRQSPGQGLQWVAVISYHSTNKYYEDSVRGRFTISRDNSKNTLYLQMNSLRAEDTAVYYCARDAYSSSFFDFWGQGTLVTVSS VL: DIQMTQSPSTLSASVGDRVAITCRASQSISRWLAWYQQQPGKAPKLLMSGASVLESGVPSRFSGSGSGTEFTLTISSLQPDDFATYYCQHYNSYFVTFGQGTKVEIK 0.284 nM
